- measuredOn: synthetic amyloid-like fibrils of recombinant amyloidogenic λ6 variable domain protein (rVλ6Wil)
- experiment: EuLISA, fibrils coated on plate (FIG. 13A)
resultType: pEC50
Entry type: numeric. Quantity: pEC50, the -log10 of concentration in molar units.

Sample records with pEC50:
humanized antibody VH8/VL4 (antibody, V domains shown) VH: QVQLQESGPGLVKPSETLSLTCTVSGFSLSSYGVSWIRQPPGKGLEWIGVIWGDGSTNYHPNLMSRVTISKDTSKSQFSLKLSSVTAADTAVYYCVTLDYWGQGTSVTVSS VL: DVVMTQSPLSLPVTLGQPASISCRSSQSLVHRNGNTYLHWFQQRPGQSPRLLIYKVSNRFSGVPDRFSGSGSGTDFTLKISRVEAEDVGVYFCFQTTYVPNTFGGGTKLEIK; 7.80
humanized antibody VH10/VL4 (antibody, V domains shown) VH: QVQLQESGPGLVKPSETLSLTCTVSGFSLSSYGVSWIRQPPGKGLEWLGVIWGDGSTNYHPNLMSRLSISKDTSKSQVLLKLSSVTAADTAVYYCVTLDYWGQGTSVTVSS VL: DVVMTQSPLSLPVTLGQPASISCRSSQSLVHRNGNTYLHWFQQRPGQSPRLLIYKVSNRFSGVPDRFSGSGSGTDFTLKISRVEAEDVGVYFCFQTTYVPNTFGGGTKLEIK; 7.77

Consider now this further binder.
// pEC50 lookup, binder = humanized antibody VH7/VL4 (antibody, V domains shown) VH: QVQLQESGPGLVKPSETLSLTCTVSGFSLSSYGVSWIRQPPGKGLEWIGVIWGDGSTNYHPNLMSRVTISKDTSKNQVLLKLSSVTAADTAVYYCVTLDYWGQGTSVTVSS VL: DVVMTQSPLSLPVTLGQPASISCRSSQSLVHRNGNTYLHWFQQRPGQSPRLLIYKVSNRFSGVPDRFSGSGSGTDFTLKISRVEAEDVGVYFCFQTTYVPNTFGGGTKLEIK , result: 7.12
